- Tested on: P388 leukemia ip, CD2F1 mice, survival T/C
- assay.explanation: NCI In Vivo Anticancer Drug Screen. Data for tumor model P388 Leukemia (intraperitoneal) in CD2F1 (CDF1) mice
- measurement.conditions: endpoint: median survival time; dose: 120.0 mg/kg/injection; schedule: Q01DX005 (ip); vehicle: saline with Tween-80; higher = longer survival
Inconclusive results and toxic doses are left out.
Property: T/C; scope: individual compounds

Some solved entries appear below for comparison.
Output measured T/C for this item: Cn1cc(CCC(=O)C2C=CC=CC2=NC(=O)CCCl)c2ccccc21 (configuration not stated) 101 % of control

Output measured T/C for this item: CCOC(=O)C12C3C(=O)N(CC)C(=O)C3ON1OC1C(=O)N(CC)C(=O)C12 (configuration not stated) 100 % of control

Output measured T/C for this item: COc1cc2c(cc1OC)C(Cc1ccccc1NC(=O)c1ccc(C(=O)Nc3ccccc3CC3c4cc(OC)c(OC)cc4CCN3C)cc1)N(C)CC2 (configuration not stated) 88 % of control

New cases:
Output measured T/C for this item: NC1=NN(Cc2csc(-c3ccccc3)n2)C(=O)C1 95 % of control

Output measured T/C for this item: C[N+](C)=c1ccc2nc3c(cc(NCCCNc4cc5oc6cc(=[N+](C)C)ccc-6nc5c5ccccc45)c4ccccc43)oc-2c1 113 % of control

Output measured T/C for this item: COc1ccc(NS(=O)(=O)c2ccc(F)cc2)cc1 106 % of control
